B1: tRNA (parent)
chain: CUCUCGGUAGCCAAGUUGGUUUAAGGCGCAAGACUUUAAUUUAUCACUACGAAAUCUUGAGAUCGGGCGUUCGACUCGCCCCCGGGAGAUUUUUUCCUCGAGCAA

Variants of: B1
Experiment: nonsense suppression (GFP-seq) (ratio to wild type); higher = more function; SUP4oc tRNA, yeast GFP reporter sort-seq
This sample holds only a part of the variants without activity.
recorded-metric: nonsense suppression

Example variants with recorded nonsense suppression:
| variant-notation | recorded-metric | result |
| --- | --- | --- |
| A60G G86U | nonsense suppression | 0.0427 |
| U16A U22C | nonsense suppression | 1.08 |
| U2A C80U | nonsense suppression | 0.0354 |
| U20A U57A | nonsense suppression | ≤ 0.026 |
| U21C A54C U63G C82U | nonsense suppression | ≤ 0.026 |

Go through the list and state nonsense suppression for each entry.
1. G19A C34A G59A G73U C82U
2. C5U A13G A14C

Out:
1. ≤ 0.026
2. ≤ 0.026
